Documented logP across a set of molecules
# measurement.description: Partition coefficient (logP)
# Assay type: physicochemical
# condition.notes: octanol/water
assay.metric: logP

Cc1cn(C2CC(N=[N+]=[N-])C(COC(=O)OCCO)O2)c(=O)[nH]c1=O (centres undefined) :: -1.2
Cc1cn(C2CC(N=[N+]=[N-])C(COC(=O)OCCCO)O2)c(=O)[nH]c1=O (centres undefined) :: -0.98
Cc1cn(C2CC(N=[N+]=[N-])C(COC(=O)CCCC(=O)O)O2)c(=O)[nH]c1=O (centres undefined) :: -0.52
Cc1cn(C2CC(N=[N+]=[N-])C(COC(=O)OCCCCO)O2)c(=O)[nH]c1=O (centres undefined) :: -0.68

----------
Documented EC50 across a set of molecules
# Test system: Human immunodeficiency virus 1
# measurement.description: Inhibition of HIV-1 (BaL) cytopathicity in human peripheral blood mononuclear cells.
# Type: functional, organism-based
assay.metric: EC50 (nM)

Cc1cn(C2CC(N=[N+]=[N-])C(COC(=O)OCCCCO)O2)c(=O)[nH]c1=O (configuration not stated) :: 0.78
Cc1cn([C@H]2C[C@H](N=[N+]=[N-])[C@@H](CO)O2)c(=O)[nH]c1=O :: 11

The values you see were collected from ChEMBL document CHEMBL1134362.
